biological target: UniProtKB O75884; test: Displacement of fluorophosphate-rhodamine from RBBP9 transfected in human HEK293T cells proteomes at 20 uM after 30 mins by SDS-PAGE gel fluorescence assay; format: cell-based; conditions: HEK-293T
Sequence (O75884 whole entry, looked up): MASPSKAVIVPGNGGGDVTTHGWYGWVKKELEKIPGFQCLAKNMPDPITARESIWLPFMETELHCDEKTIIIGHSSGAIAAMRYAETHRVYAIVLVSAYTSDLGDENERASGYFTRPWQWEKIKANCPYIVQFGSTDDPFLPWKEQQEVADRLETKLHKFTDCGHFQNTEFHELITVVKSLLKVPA
ATTRIBUTE MEASURED: inhibition (%)

Known results for compounds:
INSERT INTO results (smiles_text, measurement) VALUES
  ('CC(=O)O/N=C(\C)c1nccs1', 0),
  ('C/C(=N\OC(=O)c1c(-c2c(Cl)cccc2Cl)noc1C)c1nccs1', 8),
  ('C/C(=N\OC(=O)N1CCCCC1)c1nccs1', 0);

a = C/C(=N\OC(=O)c1ccc([N+](=O)[O-])cc1)c1nccs1
b = C/C(=N\OC(=O)c1cccc(Cl)c1)c1nccs1
**Query** Task for the reader: decide whether a or b has the larger inhibition. Lab note: record the label of whichever item you select.
**Result** b
(b: 63%, a: 15%)
